Catalogue of solubility change mitosis (log2) values
# System: HeLa Kyoto
# test.details: solubility change mitosis vs G1/S (difference of NP-40 vs SDS log2 ratios) (log2 ratio difference); higher = more soluble in mitosis

- sequence.record: "MVVSKMNKDAQMRAAINQKLIETGERERLKELLRAKLIECGWKDQLKAHCKEVIKEKGLEHVTVDDLVAEITPKGRALVPDSVKKELLQRIRTFLAQHASL [ENY2]"
  target.under.test: "HeLa Kyoto"
  solubility change mitosis (log2): 0.636
- sequence.record: "MGSAKSVPVTPARPPPHNKHLARVADPRSPSAGILRTPIQVESSPQPGLPAGEQLEGLKHAQDSDPRSPTLGIARTPMKTSSGDPPSPLVKQLSEVFETEDSKSNLPPEPVLPPEAPLSSELDLPLGTQLSVEEQMPPWNQTEFPSKQVFSKEEARQPTETPVASQSSDKPSRDPETPRSSGSMRNRWKPNSSKVLGRSPLTILQDDNSPGTLTLRQGKRPSPLSENVSELKEGAILGTGRLLKTGGRAWEQGQDHDKENQHFPLVES [CDCA3]"
  target.under.test: "HeLa Kyoto"
  solubility change mitosis (log2): 0.957

* * *

# System: HeLa Kyoto
# test.details: thermal stability score vs G1/S (z-score of summed log2 fold changes over temperatures); higher = more thermally stable than in G1/S
# condition.details: cell cycle stage: mitosis

- sequence.record: "MGTKAQVERKLLCLFILAILLCSLALGSVTVHSSEPEVRIPENNPVKLSCAYSGFSSPRVEWKFDQGDTTRLVCYNNKITASYEDRVTFLPTGITFKSVTREDTGTYTCMVSEEGGNSYGEVKVKLIVLVPPSKPTVNIPSSATIGNRAVLTCSEQDGSPPSEYTWFKDGIVMPTNPKSTRAFSNSSYVLNPTTGELVFDPLSASDTGEYSCEARNGYGTPMTSNAVRMEAVERNVGVIVAAVLVTLILLGILVFGIWFAYSRGHFDRTKKGTSSKKVIYSQPSARSEGEFKQTSSFLV [F11R]"
  thermal stability score: -2.09
- sequence.record: "MAGVGAGPLRAMGRQALLLLALCATGAQGLYFHIGETEKRCFIEEIPDETMVIGNYRTQMWDKQKEVFLPSTPGLGMHVEVKDPDGKVVLSRQYGSEGRFTFTSHTPGDHQICLHSNSTRMALFAGGKLRVHLDIQVGEHANNYPEIAAKDKLTELQLRARQLLDQVEQIQKEQDYQRYREERFRLTSESTNQRVLWWSIAQTVILILTGIWQMRHLKSFFEAKKLV [TMED4]"
  thermal stability score: 0.764
- sequence.record: "MHKAGLLGLCARAWNSVRMASSGMTRRDPLANKVALVTASTDGIGFAIARRLAQDGAHVVVSSRKQQNVDQAVATLQGEGLSVTGTVCHVGKAEDRERLVATAVKLHGGIDILVSNAAVNPFFGSIMDVTEEVWDKTLDINVKAPALMTKAVVPEMEKRGGGSVVIVSSIAAFSPSPGFSPYNVSKTALLGLTKTLAIELAPRNIRVNCLAPGLIKTSFSRMLWMDKEKEESMKETLRIRRLGEPEDCAGIVSFLCSEDASYITGETVVVGGGTPSRL [DHRS4]"
  thermal stability score: -0.663
- sequence.record: "MPFDFRRFDIYRKVPKDLTQPTYTGAIISICCCLFILFLFLSELTGFITTEVVNELYVDDPDKDSGGKIDVSLNISLPNLHCELVGLDIQDEMGRHEVGHIDNSMKIPLNNGAGCRFEGQFSINKVPGNFHVSTHSATAQPQNPDMTHVIHKLSFGDTLQVQNIHGAFNALGGADRLTSNPLASHDYILKIVPTVYEDKSGKQRYSYQYTVANKEYVAYSHTGRIIPAIWFRYDLSPITVKYTERRQPLYRFITTICAIIGGTFTVAGILDSCIFTASEAWKKIQLGKMH [ERGIC1]"
  thermal stability score: -0.585
- sequence.record: "MPKGGRKGGHKGRARQYTSPEEIDAQLQAEKQKAREEEEQKEGGDGAAGDPKKEKKSLDSDESEDEEDDYQQKRKGVEGLIDIENPNRVAQTTKKVTQLDLDGPKELSRREREEIEKQKAKERYMKMHLAGKTEQAKADLARLAIIRKQREEAARKKEEERKAKDDATLSGKRMQSLSLNK [PDAP1]"
  thermal stability score: -6.55
- sequence.record: "MEVTGVSAPTVTVFISSSLNTFRSEKRYSRSLTIAEFKCKLELLVGSPASCMELELYGVDDKFYSKLDQEDALLGSYPVDDGCRIHVIDHSGARLGEYEDVSRVEKYTISQEAYDQRQDTVRSFLKRSKLGRYNEEERAQQEAEAAQRLAEEKAQASSIPVGSRCEVRAAGQSPRRGTVMYVGLTDFKPGYWIGVRYDEPLGKNDGSVNGKRYFECQAKYGAFVKPAVVTVGDFPEEDYGLDEI [TBCB]"
  thermal stability score: 0.00665
- sequence.record: "MSASLVRATVRAVSKRKLQPTRAALTLTPSAVNKIKQLLKDKPEHVGVKVGVRTRGCNGLSYTLEYTKTKGDSDEEVIQDGVRVFIEKKAQLTLLGTEMDYVEDKLSSEFVFNNPNIKGTCGCGESFNI [ISCA1]"
  thermal stability score: -2.35
- sequence.record: "MPRDNMASLIQRIARQACLTFRGSGGGRGASDRDAASGPEAPMQPGFPENLSKLKSLLTQLRAEDLNIAPRKATLQPLPPNLPPVTYMHIYETDGFSLGVFLLKSGTSIPLHDHPGMHGMLKVLYGTVRISCMDKLDAGGGQRPRALPPEQQFEPPLQPREREAVRPGVLRSRAEYTEASGPCILTPHRDNLHQIDAVEGPAAFLDILAPPYDPDDGRDCHYYRVLEPVRPKEASSSACDLPREVWLLETPQADDFWCEGEPYPGPKVFP [ADO]"
  thermal stability score: -3.58
- sequence.record: "MLALISRLLDWFRSLFWKEEMELTLVGLQYSGKTTFVNVIASGQFSEDMIPTVGFNMRKVTKGNVTIKIWDIGGQPRFRSMWERYCRGVNAIVYMIDAADREKIEASRNELHNLLDKPQLQGIPVLVLGNKRDLPNALDEKQLIEKMNLSAIQDREICCYSISCKEKDNIDITLQWLIQHSKSRRS [ARL8B]"
  thermal stability score: -1.85
- sequence.record: "MQAGKPILYSYFRSSCSWRVRIALALKGIDYKTVPINLIKDRGQQFSKDFQALNPMKQVPTLKIDGITIHQSLAIIEYLEEMRPTPRLLPQDPKKRASVRMISDLIAGGIQPLQNLSVLKQVGEEMQLTWAQNAITCGFNALEQILQSTAGIYCVGDEVTMADLCLVPQVANAERFKVDLTPYPTISSINKRLLVLEAFQVSHPCRQPDTPTELRA [GSTZ1]"
  thermal stability score: -2.09
- sequence.record: "MAAVVAATALKGRGARNARVLRGILAGATANKASHNRTRALQSHSSPEGKEEPEPLSPELEYIPRKRGKNPMKAVGLAWYSLYTRTWLGYLFYRQQLRRARNRYPKGHSKTQPRLFNGVKVLPIPVLSDNYSYLIIDTQAQLAVAVDPSDPRAVQASIEKEGVTLVAILCTHKHWDHSGGNRDLSRRHRDCRVYGSPQDGIPYLTHPLCHQDVVSVGRLQIRALATPGHTQGHLVYLLDGEPYKGPSCLFSGDLLFLSGCGRTFEGNAETMLSSLDTVLGLGDDTLLWPGHEYAEENLGFAGVVEPENLARERKMQWVQRQRLERKGTCPSTLGEERSYNPFLRTHCLALQEALGPGPGPTGDDDYSRAQLLEELRRLKDMHKSK [PNKD]"
  thermal stability score: -0.394
